measurement_notes: chemical genetic growth profiling, strain panel (AID 1159580);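 note: tested at 20 µM; growth read once vehicle control cultures reached saturation at 30 °C; 1 = growth at the plate median or of vehicle wells; lower values mean less growth of the strain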
particulars: S. cerevisiae deletion strains, growth OD, locus YJL095W, strain BCK1 (second series), stronger effect = lower value
Hit rate of the full screen: of about 5,500 compounds, about 2,000 (36%) were called active. Another 18% or so got no clear call; they are omitted. The list shows a part of the results.
Exercise: state measured normalized growth for each of the molecules provided.
Answers are plain numbers.

Look up normalized growth for the entries below, preserving their order.
1. CC[n+]1c(-c2ccccc2)c2cc(N)ccc2c2ccc(N)cc21
2. CC(C)c1c(O)c(-c2cc3c(c(C(C)C)c2O)CCC2C(C)(C)CCC[C@]32C)cc2c1CCC1C(C)(C)CCC[C@]21C (some centres not stated)

0.979
0.997

Please supply normalized growth for each of the following items, keeping them in order.
1. CCN[C@@H]1C[C@H](N)[C@@H](O[C@H]2OC(CN)=CC[C@H]2N)[C@H](O)[C@H]1OC1OC[C@](C)(O)[C@H](NC)[C@H]1O (some centres not stated)
2. CN1C[C@H](C(=O)N[C@]2(C)O[C@@]3(O)[C@@H]4CCCN4C(=O)[C@H](Cc4ccccc4)N3C2=O)C[C@@H]2c3cccc4[nH]cc(c34)C[C@H]21
3. O=C(O[C@@H]1Cc2c(O)cc(O)cc2O[C@@H]1c1cc(O)c(=O)c2c(O)c(O)cc([C@H]3Oc4cc(O)cc(O)c4C[C@H]3OC(=O)c3cc(O)c(O)c(O)c3)c2c1)c1cc(O)c(O)c(O)c1

1.01
0.98
0.269

Hello, I would appreciate it if you could give normalized growth for each entry below.
1. CC(CC(O)C1OC1(C)C)[C@@H]1CCC2(C)C3=CCC4C(C)(C)C(=O)CCC4(C)C3CC[C@@]12C (some centres not stated)
2. CN[C@@H]1C(O)[C@@H](O[C@@H]2[C@@H](O)[C@H](O[C@H]3OC(CN)=CC[C@H]3N)[C@@H](N)C[C@H]2N)OC[C@]1(C)O (some centres not stated)

1. 1
2. 1.01

* * *

Record form. Attribute: normalized growth. Fill in for each entry.
measurement_notes: chemical genetic growth profiling, strain panel (AID 1159580)
particulars: S. cerevisiae deletion strains, growth OD, locus YJR043C, strain POL32, stronger effect = lower value
About 2,000 (36%) of roughly 5,500 compounds were called active. Not shown: some 18% with an inconclusive outcome. Some of the results follow.

[
  {
    "compound": "COc1ccc(-c2oc3c(CC=C(C)C)c(O[C@@H]4O[C@H](CO)[C@@H](O)[C@H](O)[C@H]4O)cc(O)c3c(=O)c2O[C@@H]2O[C@@H](C)[C@H](O)[C@@H](O)[C@H]2O)cc1",
    "recorded_result": "1.04 (inactive)"
  },
  {
    "compound": "CC(C)(O)[C@@H]1Cc2cc3ccc(=O)oc3cc2O1",
    "recorded_result": "1.01 (inactive)"
  }
]

Give me normalized growth for each of these compounds, listed below.
1. COc1cc(O)c2c(=O)c(O)c(-c3ccc(O)c(O)c3)oc2c1
2. COc1cc(OC)c2c(=O)c(OC)c(-c3ccc(OC)c(OC)c3)oc2c1

0.896 (inactive)
1 (inactive)

Below is a list of compounds. For each, state its recorded normalized growth.
1. COc1ccc(-c2cc(=O)c3c(O)cc(O[C@H]4O[C@H](CO[C@@H]5O[C@@H](C)[C@H](O)[C@@H](O)[C@H]5O)[C@@H](O)[C@H](O)[C@H]4O)cc3o2)cc1
2. O=c1c(O)c(-c2cc(O)c(O)c(O)c2)oc2cc(O)cc(O)c12
3. C[C@@H]1O[C@@H](OC[C@H]2OC(Oc3c(-c4ccc(OCCO)c(OCCO)c4)oc4cc(OCCO)cc(O)c4c3=O)[C@H](O)[C@@H](O)[C@@H]2O)[C@H](O)[C@H](O)[C@H]1O (some centres not stated)

1. 0.972 (inactive)
2. 0.965 (inactive)
3. 0.972 (inactive)

* * *

measurement_notes: chemical genetic growth profiling, strain panel (AID 1159580)
particulars: S. cerevisiae deletion strains, growth OD, locus YNL183C, strain NPR1, stronger effect = lower value
Out of some 5,500 compounds screened, about 2,000 (36%) were called active. Roughly 18% stayed inconclusive and do not appear here. The list shows a part of the results. Where a SMILES comes first, the peptide text is derived from it.
Binary label based on normalized growth with cut-off 0.9: below gives Satisfied, not below gives Not satisfied.

[
  {
    "compound": "Oc1c(Br)cc(Br)cc1/C=N\\n1cnnc1",
    "class_assignment": "Satisfied"
  },
  {
    "compound": "CCOC(=O)c1c(C)cc(O)cc1O",
    "class_assignment": "Satisfied"
  },
  {
    "compound": "CC(N)C12CC3CC(CC(C3)C1)C2 (centres undefined)",
    "class_assignment": "Not satisfied"
  },
  {
    "compound": "COC(=O)[C@H](Cc1ccccc1)NC(=O)[C@@H](N)CC(=O)O (H-Asp-Phe-OMe)",
    "class_assignment": "Not satisfied"
  },
  {
    "compound": "CC1CC[C@]2(NC1)O[C@H]1CC3C4CC[C@H]5C[C@@H](O)CC[C@]5(C)C4CC[C@]3(C)[C@H]1[C@@H]2C (some centres undefined)",
    "class_assignment": "Satisfied"
  }
]

Consider now this further compound.
Regarding CC(CC(C(N)=O)(c1ccccc1)c1ccccc1)N(C)C (centres undefined) , kindly confirm whether its normalized growth is beneath 0.9.
Not satisfied

* * *

measurement_notes: chemical genetic growth profiling, strain panel (AID 1159580);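 note: tested at 20 µM; growth read once vehicle control cultures reached saturation at 30 °C; 1 = growth at the plate median or of vehicle wells; lower values mean less growth of the strain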
particulars: S. cerevisiae deletion strains, growth OD, locus YEL037C, strain rad23, stronger effect = lower value
Out of some 5,500 compounds screened, about 2,000 (36%) were called active. Another 18% or so got no clear call; they are omitted. The list shows a part of the results.
So basically, if normalized growth comes in under 1 it's Satisfied, and if it's 1 or more it's Not satisfied.

Field: example entries. Status: answers known.
[
  {
    "molecule": "C[N+](C)(C)CC(O)CC(=O)O (configuration not stated)",
    "class_assignment": "Satisfied"
  },
  {
    "molecule": "NC(=NCCC[C@H](N)C(=O)O)N[N+](=O)[O-]",
    "class_assignment": "Not satisfied"
  },
  {
    "molecule": "Cc1ccccc1OCC(O)CO (configuration not stated)",
    "class_assignment": "Satisfied"
  }
]

State whether 1 exceeds normalized growth recorded for COC(=O)[C@]1(C)CCC[C@]2(C)c3ccc(C(C)C)cc3C(=O)CC12 (some centres not stated) .
Satisfied

Dear reviewer, please state whether CN(C)c1ccc2nc3ccc(=[N+](C)C)cc-3sc2c1 has normalized growth strictly beneath 1.
Not satisfied

* * *

measurement_notes: chemical genetic growth profiling, strain panel (AID 1159580);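 note: tested at 20 µM; growth read once vehicle control cultures reached saturation at 30 °C; 1 = growth at the plate median or of vehicle wells; lower values mean less growth of the strain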
particulars: S. cerevisiae deletion strains, growth OD, locus YPL106C, strain sse1, stronger effect = lower value
Screen size: about 5,500 compounds; about 2,000 (36%) were called active. Inconclusive results (about 18%) are left out. The list shows a part of the results.
For each of the compounds below, state its normalized growth.
Give bare numbers.

[
  {
    "compound": "CCN[C@@H]1C[C@H](N)[C@@H](O[C@H]2OC(CN)=CC[C@H]2N)[C@H](O)[C@H]1OC1OC[C@](C)(O)[C@H](NC)[C@H]1O (stereo not given in full)",
    "experimental_readout": "normalized growth",
    "recorded_result": 1
  },
  {
    "compound": "NC(=O)CN1CCCC1=O",
    "experimental_readout": "normalized growth",
    "recorded_result": 0.958
  },
  {
    "compound": "CC(C)(C)NCC(O)c1cc(O)cc(O)c1 (stereo not given)",
    "experimental_readout": "normalized growth",
    "recorded_result": 0.97
  }
]

Can you give me normalized growth for all of these, one by one?
1. CC(C)c1c(O)c(-c2cc3c(c(C(C)C)c2O)CCC2C(C)(C)CCC[C@]32C)cc2c1CCC1C(C)(C)CCC[C@]21C (stereo not given in full)
2. O=C(Cc1cccs1)NC1C(=O)N2C(C(=O)[O-])=C(C[n+]3ccccc3)CSC12 (stereo not given)

1: 0.948; 2: 0.939

* * *

I'd be grateful if you could share measured normalized growth for these entries.
measurement_notes: chemical genetic growth profiling, strain panel (AID 1159580);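 note: tested at 20 µM; growth read once vehicle control cultures reached saturation at 30 °C; 1 = growth at the plate median or of vehicle wells; lower values mean less growth of the strain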
particulars: S. cerevisiae deletion strains, growth OD, locus YPR141C, strain kar3, stronger effect = lower value
Among all 5,500 compounds or so, about 2,000 (36%) were called active. Inconclusive results (about 18%) are left out. The list shows a part of the results.
Answers are plain numbers.

[
  {
    "compound": "CC1(C)O[C@H]2CC(=O)OC[C@]23[C@H]2CC[C@@]4(C)[C@H](c5ccoc5)OC(=O)[C@H]5O[C@]54[C@]2(C)C(=O)C[C@@H]13",
    "normalized growth": 0.991
  },
  {
    "compound": "COC(=O)C1OC(=O)C2OC23C1(C)CCC1C2(C)C(OC(C)=O)CC(OC(C)=O)C(C)(C)C2CC(=O)C13C (centres undefined)",
    "normalized growth": 0.975
  }
]

Provide each entry's normalized growth from the list below.
1. CCCC(C)(COC(N)=O)COC(=O)NC(C)C (centres undefined)
2. COc1ccc(-c2cc(=O)c3c(O)cc(O[C@H]4O[C@H](CO[C@@H]5O[C@@H](C)[C@H](O)[C@@H](O)[C@H]5O)[C@@H](O)[C@H](O)[C@H]4O)cc3o2)cc1
3. CCCCOc1cc(C(=O)NCCN(CC)CC)c2ccccc2n1
4. COc1cccc2c(C)cc(=O)[nH]c12
5. CC(C)(C)NCC(O)c1cc(Cl)c(N)c(Cl)c1 (centres undefined)
6. COc1cc(OC)c2c(=O)c(OC)c(-c3ccc(OC)c(OC)c3)oc2c1
7. CC(CC(O)C1OC1(C)C)[C@@H]1CCC2(C)C3=CCC4C(C)(C)C(=O)CCC4(C)C3CC[C@@]12C (some centres undefined)
8. COc1ccc(-c2oc3c(CC=C(C)C)c(O[C@@H]4O[C@H](CO)[C@@H](O)[C@H](O)[C@H]4O)cc(O)c3c(=O)c2O[C@@H]2O[C@@H](C)[C@H](O)[C@@H](O)[C@H]2O)cc1

1. 0.956
2. 1.01
3. 1
4. 0.953
5. 0.996
6. 1.02
7. 1.05
8. 0.968

// each compound listed below needs its normalized growth
1. Cc1[nH]ccc2c1[nH]c1cc(=O)ccc12
2. O=C(O)C1=C[C@@H](O)[C@@H](O)[C@H](O)C1

1: 0.994; 2: 1

# return normalized growth for each item in the list
1. COc1cc(O)c2c(=O)c(O)c(-c3ccc(O)c(O)c3)oc2c1
2. NS(=O)(=O)c1cc(C2(O)NC(=O)c3ccccc32)ccc1Cl (centres undefined)
3. CC(C1OC(C)(C)C(O)C1O)[C@@H]1CC[C@]2(C)C3=CCC4C(C)(C)C(=O)CC[C@]4(C)C3CC[C@@]12C (some centres undefined)

1: 0.997; 2: 1.03; 3: 1.04

Below are some compounds; for each one, tell me its normalized growth.
1. COc1cc(OC)c2c(=O)c(O)c(-c3ccc(OC)c(OC)c3)oc2c1
2. COc1ccccc1/C=C\C(=O)O
3. NC(N)=NC(=O)c1nc(Cl)c(N)nc1N

[0.996, 0.999, 1.01]

Please look up its normalized growth: CC1=CC(=O)C2=C(C)CC[C@@H]3[C@H](OC(=O)[C@H]3C)[C@@H]12
0.98
